Can you tell me self-cleavage for the items I'm about to list?
B1: Twister Ribozyme (parent)
chain: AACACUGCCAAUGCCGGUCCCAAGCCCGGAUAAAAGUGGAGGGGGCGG

# Variants of: B1
# EXPERIMENT DESCRIPTION: self-cleavage, relative activity (ratio to wild type); higher = more cleavage; co-transcriptional

Entry A22C G42A , self-cleavage reported as 0.215

The variant listed as C5A U12A has a reported self-cleavage of 0.764

Sample A1U A32G ; self-cleavage observed: 0.0499

For reference, reported self-cleavage for A34C G41C stands at 0.111

So, A30G C46A ? Its self-cleavage was 0.763

variant G29A A32G , self-cleavage observed: 0.84

Item: G36C A40C | self-cleavage: 0.15

According to the records, this variant G17U U31G displays self-cleavage of 0.339

The recorded self-cleavage for G41C G42C is 0.129

Just so you know, measured self-cleavage for C15G C19G came out at 0.0636

Given item G7C G41U , the value recorded as its self-cleavage is 0.0511

Summary for this variant, G47A G48C : self-cleavage is 0.942

The variant listed as U12G G36C shows self-cleavage equal to 0.475

Documented self-cleavage of C19G G44A : 0.351

The reported value for G13A U37C in terms of self-cleavage is 0.183

So, A35G G48U ? Its self-cleavage was 0.882

The reported self-cleavage of the variant U18C C27A was 0.0979

Recorded result, A10C U12G , self-cleavage: 1.06

Just so you know, measured self-cleavage for A22C G45A came out at 0.927

Lab book: self-cleavage of C14U C15G noted as 0.36

According to the records, this variant A2C C26U displays self-cleavage of 0.0792

Value of measured self-cleavage for the entry A10C G48C : 1.03
